experimental.target: Replicase polyprotein 1ab (Middle East respiratory syndrome-related coronavirus (isolate UnitedKingdom/H123990006/2012) (Betacoronavirus England 1) (Humancoronavirus EMC), UniProt K9N7C7)
Sequence (K9N7C7 854-2740 limits assumed): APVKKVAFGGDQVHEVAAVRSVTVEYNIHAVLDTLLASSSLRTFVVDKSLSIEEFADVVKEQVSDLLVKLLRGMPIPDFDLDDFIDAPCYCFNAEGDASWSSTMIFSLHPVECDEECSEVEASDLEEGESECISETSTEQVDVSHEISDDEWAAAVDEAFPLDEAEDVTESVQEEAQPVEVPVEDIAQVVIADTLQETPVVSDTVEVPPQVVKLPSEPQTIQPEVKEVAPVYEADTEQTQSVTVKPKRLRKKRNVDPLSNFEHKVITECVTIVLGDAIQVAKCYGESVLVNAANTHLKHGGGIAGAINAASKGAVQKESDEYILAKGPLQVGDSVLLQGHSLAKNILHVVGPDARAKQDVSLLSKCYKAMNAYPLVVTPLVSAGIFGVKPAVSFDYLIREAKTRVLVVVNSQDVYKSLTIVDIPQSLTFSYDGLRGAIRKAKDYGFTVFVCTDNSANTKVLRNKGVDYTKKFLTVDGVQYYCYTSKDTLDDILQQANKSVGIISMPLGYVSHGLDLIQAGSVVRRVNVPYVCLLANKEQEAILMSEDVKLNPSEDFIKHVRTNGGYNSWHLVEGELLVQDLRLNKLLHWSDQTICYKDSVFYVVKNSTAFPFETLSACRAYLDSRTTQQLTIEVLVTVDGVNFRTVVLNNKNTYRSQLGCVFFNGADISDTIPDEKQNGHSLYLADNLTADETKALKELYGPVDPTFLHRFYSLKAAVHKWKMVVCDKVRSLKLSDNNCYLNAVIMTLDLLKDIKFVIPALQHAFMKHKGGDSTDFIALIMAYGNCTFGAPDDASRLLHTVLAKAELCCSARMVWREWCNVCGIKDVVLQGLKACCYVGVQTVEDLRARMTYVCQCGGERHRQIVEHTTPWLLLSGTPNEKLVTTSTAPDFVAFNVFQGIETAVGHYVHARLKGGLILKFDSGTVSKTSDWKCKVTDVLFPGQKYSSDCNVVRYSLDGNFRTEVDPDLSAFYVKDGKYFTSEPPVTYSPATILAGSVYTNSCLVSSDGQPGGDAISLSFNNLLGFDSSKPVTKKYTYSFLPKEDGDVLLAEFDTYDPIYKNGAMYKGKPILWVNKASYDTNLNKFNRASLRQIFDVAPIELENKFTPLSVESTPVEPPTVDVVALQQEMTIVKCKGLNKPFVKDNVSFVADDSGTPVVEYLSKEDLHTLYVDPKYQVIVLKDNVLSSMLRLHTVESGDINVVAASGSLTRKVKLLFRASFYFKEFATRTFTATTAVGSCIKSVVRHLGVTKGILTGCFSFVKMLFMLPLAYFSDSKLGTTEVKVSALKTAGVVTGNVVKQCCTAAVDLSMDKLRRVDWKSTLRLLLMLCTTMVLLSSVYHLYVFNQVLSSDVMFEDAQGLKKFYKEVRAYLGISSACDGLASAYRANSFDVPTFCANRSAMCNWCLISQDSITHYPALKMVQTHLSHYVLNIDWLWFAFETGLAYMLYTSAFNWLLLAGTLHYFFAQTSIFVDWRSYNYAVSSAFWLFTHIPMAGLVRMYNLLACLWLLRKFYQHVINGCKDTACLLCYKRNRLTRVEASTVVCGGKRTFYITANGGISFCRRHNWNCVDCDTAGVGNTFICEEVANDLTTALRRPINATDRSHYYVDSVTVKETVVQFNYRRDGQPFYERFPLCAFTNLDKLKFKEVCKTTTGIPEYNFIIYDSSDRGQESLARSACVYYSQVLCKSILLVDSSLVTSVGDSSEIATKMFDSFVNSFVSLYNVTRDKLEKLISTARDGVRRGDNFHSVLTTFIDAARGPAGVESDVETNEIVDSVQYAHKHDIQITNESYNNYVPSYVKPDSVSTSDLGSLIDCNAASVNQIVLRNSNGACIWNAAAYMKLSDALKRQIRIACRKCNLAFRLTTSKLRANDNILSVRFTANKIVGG
protocol: Competitive-inhibition of MERS-CoV papain-like protease using varying levels of Z-Arg-Leu-Arg-Gly-Gly-AMC as substrate by Dixon-plot analysis
measurement.type: Ki (µM)
One number for each entry, in µM.

query: Given Cc1cc(C)n(S(=O)(=O)c2ccc(N)cc2)c(=O)n1 , state its recorded Ki.
result: 36.6

---

experimental.target: Replicase polyprotein 1ab (Middle East respiratory syndrome-related coronavirus (isolate UnitedKingdom/H123990006/2012) (Betacoronavirus England 1) (Humancoronavirus EMC), UniProt K9N7C7)
protocol: Inhibition of MERS-CoV papain-like protease using Z-Arg-Leu-Arg-Gly-Gly-AMC as substrate preincubated for 5 mins followed by substrate addition and measured for 10 mins by fluorescence assay
measurement.type: pIC50
Answers are plain numbers, as −log10 of the molar value.

Use these answered entries as a reference point.
1. O=[N+]([O-])c1ccc(Cl)c2nonc12
3.85
2. O=Cc1ccc(O)c(O)c1 [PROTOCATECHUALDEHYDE]
3.62
3. O=[N+]([O-])c1ccc(O)c(O)c1 [4-Nitrocatechol]
3.84

Respectfully, I request pIC50 for each entry included below.
1. Cc1cc(C)n(S(=O)(=O)c2ccc(N)cc2)c(=O)n1
2. Nc1ccc([N+](=O)[O-])cn1

result:
1. 4.70
2. 3.86

---

experimental.target: Replicase polyprotein 1ab (Middle East respiratory syndrome-related coronavirus (isolate UnitedKingdom/H123990006/2012) (Betacoronavirus England 1) (Humancoronavirus EMC))
protocol: Binding affinity to MERS-CoV papain-like protease by SPR analysis
pKd: −log10 of the molar value.
measurement.type: pKd

1) Cc1cc(C)n(S(=O)(=O)c2ccc(N)cc2)c(=O)n1
5.03 to 5.12
2) Cn1c(=O)c2c(nc(NN=C3C(=O)NC(=O)NC3=O)n2C)n(C)c1=O
3.95 to 5.12
3) O=C(O)c1cc(/C=C/c2ccc(N3CCOCC3)cc2)nc2ccccc12
3.95 to 5.12
4) COCC(=O)/C=C1\Sc2ccccc2N1C
3.95 to 5.12
5) Cc1ccc(C)c(CSc2nc(C3CCCCC3)c(C#N)c(=O)[nH]2)c1
3.95 to 5.12

query: Which measured pKd value corresponds to O=C(O)c1cc(/N=N/c2ccc(S(=O)(=O)Nc3ccccn3)cc2)ccc1O ?
result: 3.95 to 5.12

---

experimental.target: Replicase polyprotein 1ab (Middle East respiratory syndrome-related coronavirus (isolate UnitedKingdom/H123990006/2012) (Betacoronavirus England 1) (Humancoronavirus EMC))
protocol: Inhibition of MERS-CoV papain-like protease using Z-Arg-Leu-Arg-Gly-Gly-AMC as substrate preincubated for 5 mins followed by substrate addition and measured for 10 mins by fluorescence assay
Set-up: concentration or dose not given beside the values
Would you kindly list inhibition for each of these molecules?
Numbers only, in %.

# annotated cases, reported inhibition shown
1. CC(=O)Nc1ccc(S(=O)(=O)n2c(C)cc(C)nc2=O)cc1
2
2. Nc1ccc(S(=O)(=O)N2CC(=O)NC(=O)C2)cc1
16
3. Cc1ccc(S(=O)(=O)n2c(C)cc(C)nc2=O)cc1
11
4. Cc1cc(C)n(S(=O)(=O)c2ccc(N)cc2)c(=O)n1
73

Next molecule, inhibition to be filled in.
query: Name the recorded inhibition for CC1CCCC(C)N1S(=O)(=O)c1ccc(N)cc1 (stereo not given) .
result: 7
